- TESTED_TARGET: TGF-beta1 (hTGF-beta1) (Homo sapiens, UniProt P01137 P01137:279-390)
- Sequence (P01137 279-390, one chain of several): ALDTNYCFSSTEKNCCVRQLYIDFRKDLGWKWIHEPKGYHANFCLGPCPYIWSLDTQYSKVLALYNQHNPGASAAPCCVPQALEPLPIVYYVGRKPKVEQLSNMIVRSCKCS
- METHOD: filter; biphasic; Kd1 3.7±1.5 nM
- PROTOCOL_CONDITIONS: tags: R&D Systems; biotinylated form (NFTG0) used for BIAcore; chain copies: 2
pKd: −log10 of the molar value.
QUANTITY_NAME: pKd

INSERT INTO results (binder, value_reported) VALUES
  ('40-77 (ssRNA, 2''-F C and U) RNA: GGGAGGACGAUGCGGUUAUGGGCGUCAACACCGCUAUUACAACUUUCGCCCCCCAGACGACUCGCCCGA', 11.76);
